A collection of molecules and their measured Ratio IC50
# method notes: Ratio of IC50 for human THP1 cells to IC50 for axenic amastigote state of Leishmania infantum
measurement kind: Ratio IC50

INSERT INTO assay_data (molecule, measurement_kind, experimental_result) VALUES
  ('O=C(NC(=[Se])Nc1ccc([Se][Se]c2ccc(NC(=[Se])NC(=O)c3cnc4ccccc4c3)cc2)cc1)c1cnc2ccccc2c1', 'Ratio IC50', 4.15),
  ('O=C(O)C1CCCCC1C(=O)Nc1ccc([Se][Se]c2ccc(NC(=O)C3CCCCC3C(=O)O)cc2)cc1 (centres undefined)', 'Ratio IC50', '>12.31'),
  ('O=C(NC(=[Se])Nc1ccc([Se][Se]c2ccc(NC(=[Se])NC(=O)c3cc4ccccc4s3)cc2)cc1)c1cc2ccccc2s1', 'Ratio IC50', '>1.71'),
  ('O=C1C=CC(=O)N1c1ccc([Se][Se]c2ccc(N3C(=O)C=CC3=O)cc2)cc1', 'Ratio IC50', 9.91);

====

# method notes: Ratio of IC50 for human THP1 cells to IC50 for axenic amastigote state of Leishmania infantum
measurement kind: Ratio IC50

INSERT INTO assay_data (compound, experimental_result) VALUES
  ('O=C(O)C1C2C=CC(O2)C1C(=O)Nc1ccc([Se][Se]c2ccc(NC(=O)C3C4C=CC(O4)C3C(=O)O)cc2)cc1 (stereo not drawn)', '>19.13'),
  ('O=C(NC(=[Se])Nc1ccc([Se][Se]c2ccc(NC(=[Se])NC(=O)c3cccs3)cc2)cc1)c1cccs1', 4.87),
  ('O=C(O)c1ccccc1C(=O)Nc1ccc([Se][Se]c2ccc(NC(=O)c3ccccc3C(=O)O)cc2)cc1', '>5.47'),
  ('CSc1ccc(C(=O)NC(=[Se])Nc2ccc([Se][Se]c3ccc(NC(=[Se])NC(=O)c4ccc(SC)cc4)cc3)cc2)cc1', '>1.85'),
  ('O=C(NC(=[Se])Nc1ccc([Se][Se]c2ccc(NC(=[Se])NC(=O)c3ccc([N+](=O)[O-])cc3)cc2)cc1)c1ccc([N+](=O)[O-])cc1', '>11.01'),
  ('O=C(O)COCC(=O)Nc1ccc([Se][Se]c2ccc(NC(=O)COCC(=O)O)cc2)cc1', '>2.06'),
  ('O=C(NC(=[Se])Nc1ccc([Se][Se]c2ccc(NC(=[Se])NC(=O)c3ccco3)cc2)cc1)c1ccco1', 11.19),
  ('Cc1ccc(C(=O)NC(=[Se])Nc2ccc([Se][Se]c3ccc(NC(=[Se])NC(=O)c4ccc(C)cc4)cc3)cc2)cc1', '>1.66');

====

# method notes: Ratio of IC50 for human THP1 cells to IC50 for axenic amastigote state of Leishmania infantum
measurement kind: Ratio IC50

INSERT INTO assay_data (compound, experimental_result) VALUES
  ('COc1cc(OC)cc(C(=O)NC(=[Se])Nc2ccc([Se][Se]c3ccc(NC(=[Se])NC(=O)c4cc(OC)cc(OC)c4)cc3)cc2)c1', '>2.77'),
  ('N#C[Se]c1ccc(NC(=O)C2CCCCC2C(=O)O)cc1 (centres undefined)', '>2.35'),
  ('N#C[Se]c1ccc(NC(=O)c2ccccc2-c2ccccc2C(=O)O)cc1', '>2.34'),
  ('O=C(O)CCC(=O)Nc1ccc([Se][Se]c2ccc(NC(=O)CCC(=O)O)cc2)cc1', '>3.16');
